Each entry below carries its reported GI50.
# Tested on: OVCAR-5 ovarian
# ASSAY_INFO: NCI tumour cell line growth inhibition, 48 h

These recorded examples may help you get a feel for the data.
Problem: Recorded GI50 of Cc1c(C)c2c(c(C)c1OCC(=O)O)CC[C@@](C)(CCC[C@@H](C)CCC[C@@H](C)CCCC(C)C)O2 , please.
Result: 86.3 µM

Problem: Recorded GI50 of COc1cc(NC(C)CCCNC(C)C)c2ncccc2c1OC (stereo not given) , please.
Result: > 100 µM

Problem: Recorded GI50 of COc1cc(CN(c2ccc(C)cc2)C2OC(=O)c3ccccc32)cc(OC)c1OC (stereo not given) , please.
Result: 1.58 µM

---
Problem: Recorded GI50 of COc1cc(-c2cc3ncccc3c3[nH]c(=O)c4cccnc4c23)cc(OC)c1OC , please.
Result: > 100 µM

Problem: Recorded GI50 of COc1cccc(NC(=O)c2sc3nc4c(cc3c2N)C(O)CCC4)c1 (stereo not given) , please.
Result: 0.521 µM

Problem: Recorded GI50 of CCOC(=O)C#Cc1c(C(=O)OCC)nnn1[C@@H]1O[C@H](CO)[C@H]2OC3(CCCCC3)O[C@H]21 , please.
Result: 8.09 µM

Problem: Recorded GI50 of C[C@H](NC(=O)c1c(C(F)F)nn(C)c1Oc1cccc(C(F)(F)F)c1)c1ccc(C(=O)O)cc1 , please.
Result: > 100 µM

Problem: Recorded GI50 of O=C(CN(/C=C/C(=O)C(F)(F)F)c1ccccc1)c1ccc(Cl)cc1 , please.
Result: 22.2 µM

Problem: Recorded GI50 of CC(C)(C)c1nc(-c2cccc(NS(=O)(=O)c3c(F)cccc3F)c2F)c(-c2ccnc(N)n2)s1 , please.
Result: 12.3 µM

Problem: Recorded GI50 of C=C(CN1c2ccccc2Sc2ccccc21)c1ccc(C(=O)Nc2ccccc2N)cc1 , please.
Result: > 100 µM

###

Each entry below carries its reported TGI.
# Tested on: SNB-75 CNS
# ASSAY_INFO: NCI tumour cell line growth inhibition, 48 h
Hi! Could you send only the number? It should be in µM, unit omitted.

These recorded examples may help you get a feel for the data.
Problem: Recorded TGI of COc1cc(C2c3cc4c(cc3[C@@H](N(C)c3ccc(N(C)C)cc3)C3COC(=O)C23)OCO4)cc(OC)c1O (stereo partly drawn) , please.
Result: 42.3

Problem: Recorded TGI of CCOC(=O)C1=C(C(=O)OCC)C2(c3ccccc3)N(O1)c1ccccc1C2(C)C (stereo not drawn) , please.
Result: 89.5

Problem: Recorded TGI of O=C1NC(=Nc2ccccc2Cl)N/C1=C\c1ccc(Cl)cc1Cl , please.
Result: 93

Problem: Recorded TGI of CC12OC(C(=O)C13CCC3)C1C(=O)c3ccc4c(ccc5ccccc54)c3C(=O)C12 (stereo not drawn) , please.
Result: 37.7

Problem: Recorded TGI of CCCCCCCCCCOC(=O)c1cc[n+](C)cc1 , please.
Result: 34.3

Problem: Recorded TGI of COc1ccc(C2C3=C(COC3=O)OC(C)(C)Oc3cc4c(cc32)OCO4)cc1OC (stereo not drawn) , please.
Result: 24.8

---
Problem: Recorded TGI of CC(=O)NC1C(OCc2ccccc2)OC(CO)C(O)C1OCC(=O)N[C@@H](C)C(=O)N[C@H](CCC(=O)NCCNc1ccc([N+](=O)[O-])c2[nH]c3ccccc3c(=O)c12)C(N)=O (stereo partly drawn) , please.
Result: 61.5

Every entry's value here was drawn from PubChem BioAssay (NCI).
